The reported numbers originate from patent US7125902B2.

- System: C6 (Rat Glialtumor Cell or CCL-107) Cell Line
- Method notes: MTT colorimetric assay for cellular viability on C6 cells
- Assay type: cell-based
- Condition summary: 48-h incubation
Some molecules, each annotated with its measured IC50.

If you can, please state the reported IC50 value of CCOC(=O)CC[C@H](NC(=O)c1ccc(NC(=O)c2cc(C)on2)cc1)C(=O)OCC .
0.16 µM

Also Cc1cc(C(=O)Nc2cccc(C(F)(F)F)c2)no1 , if possible.
0.2 µM

Also Cc1cc(C(=O)Nc2ccc(Cl)cc2)no1 , if possible.
0.81 µM

Also Cc1cc(C(=O)Nc2ccc(C(=O)O)cc2)no1 , if possible.
0.19 µM

Also COc1ccc(NC(=O)c2cc(C)on2)cc1 , if possible.
0.35 µM

Also C/C(O)=C(\C#N)C(=O)Nc1ccc(C(F)(F)F)cc1 [A77 1726, reference compound] , if possible.
0.159 µM

Also Cc1cc(C(=O)Nc2ccccc2)no1 , if possible.
1.37 µM

---

- Tested on: HT29 (adenocarcinoma of the colon)
- Method notes: SRB cell proliferation assay on HT-29 cells
- Assay type: cell-based, human
- Condition summary: HT-29 cells, SRB assay, 5d continuous exposure, estimated from readings
Experimental endpoint: pIC50
Units for pIC50: none; it is -log10 of a concentration expressed in mol/L.

Value wanted: pIC50 (HT29 (adenocarcinoma of the colon)) of entry Cc1cc(C(=O)Nc2ccc(Cl)cc2)no1
6.15

---

- Method notes: Acute toxicity study, determination of LD50 values
- Format: in vivo
- Condition summary: male, ICR, mouse, in vivo, ip
- Protocol: Leflunomide, its metabolite (A77 1726), and several isoxazole derivatives were chosen for the acute toxicity study. Male ICR mice were used for the intraperitoneal injection of each compound at different doses according to the following procedure: Small male ICR mice are chosen, each weighing 17–23 grams. They are equally classified at random into individual groups, 3–5 mice per group. […] Toxic reaction is observed for three days, then the acute half lethal dose (LD50) is determined.
Experimental endpoint: LD50 at 3 days (mg/kg)
Express the result in mg/kg but write the number alone.

If you can, please state the reported LD50 at 3 days value of Cc1oncc1C(=O)Nc1ccc(C(F)(F)F)cc1 [Leflunomide, reference compound] .
250

---

Some molecules, each annotated with its measured LD50.
- Test system: Male ICR mice
- Method notes: Acute toxicity study, determination of LD50 values
- Format: in vivo
- Condition summary: male ICR mice, single intraperitoneal injection, observed for three days
- Description: Leflunomide, its metabolite (A77 1726), and several isoxazole derivatives were chosen for the acute toxicity study. Male ICR mice were used for the intraperitoneal injection of each compound at different doses according to the following procedure: Small male ICR mice are chosen, each weighing 17–23 grams. They are equally classified at random into individual groups, 3–5 mice per group. […] Toxic reaction is observed for three days, then the acute half lethal dose (LD50) is determined.

# Molecule, LD50
data = [
    ("Cc1cc(C(=O)Nc2ccccc2)no1 [UTL-5a]", ">2,000 mg/Kg"),
    ("Cc1cc(C(=O)Nc2ccc(Cl)cc2Cl)no1 [UTL-5g]", ">2,000 mg/Kg"),
]

If you can, please state the reported LD50 value of Cc1cc(C(=O)Nc2ccc(C(=O)O)cc2)no1 [UTL-5j] .
>2,000 mg/Kg

Also C/C(O)=C(\C#N)C(=O)Nc1ccc(C(F)(F)F)cc1 [A77 1726, reference compound] , if possible.
200 mg/kg

Also Cc1cc(C(=O)Nc2ccc(Cl)cc2)no1 [UTL-5d] , if possible.
1,800 mg/Kg

---

- System: Male ICR mice
- Method notes: Acute toxicity study, determination of LD50 values
- Type: in vivo
- Condition summary: mouse, in vivo, ip
Experimental endpoint: Acute symptoms observed

# Compound, Result
rows = [
    ("Cc1cc(C(=O)Nc2ccccc2)no1 [UTL-5a]", "agitation"),
    ("Cc1cc(C(=O)Nc2ccc(C(=O)O)cc2)no1 [UTL-5j]", "agitation"),
    ("Cc1cc(C(=O)Nc2ccc(Cl)cc2Cl)no1 [UTL-5g]", "agitation"),
]

---

- Test system: C6 (Rat Glialtumor Cell or CCL-107) Cell Line
- Method notes: MTT colorimetric assay for cellular viability on C6 cells
- Assay type: cell-based
- Condition summary: 48-h incubation
- Experimental: Cell lines (C6 and Hep G2) were obtained from the Bioresource Collection and Research Center. All cell culture media and supplements were purchased from Invitrogen, Co. (GIBCO™, Gland Island, N.Y.) unless otherwise specified. […] All compounds were tested for inhibition of anchorage-dependent tumor cell growth using MTT assay. […] Absorbance, as a measure of cell viability, was read the following day in an ELISA plate reader at a wavelength of 550 nm. […]
Some compounds, each annotated with its measured IC50.
Express the result in µM but write the number alone.

The cases that follow already have their IC50 on record.
# Query smiles, Readout number
records = [
    ("Cc1cc(C(=O)Nc2ccc(Cl)cc2Cl)no1", 0.18),
    ("Cc1cc(C(=O)Nc2ccc(C(F)(F)F)cc2)no1", 0.17),
    ("Cc1cc(C(=O)Nc2cccc(Cl)c2)no1", 0.163),
]

Next up:
If you can, please state the reported IC50 value of COc1cc(NC(=O)c2cc(C)on2)cc(OC)c1OC .
1.18
